# measured-target: R232-STING (Homo sapiens, UniProt Q86WV6, H232R)
# Sequence (Q86WV6 155-341 H232R): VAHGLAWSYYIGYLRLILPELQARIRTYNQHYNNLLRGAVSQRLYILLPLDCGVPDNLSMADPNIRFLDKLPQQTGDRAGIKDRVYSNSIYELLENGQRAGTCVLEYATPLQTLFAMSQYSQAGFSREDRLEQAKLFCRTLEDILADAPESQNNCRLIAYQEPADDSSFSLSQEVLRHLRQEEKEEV
# assay-comment: biochemical
pKi: −log10 of the molar value.
assay-endpoint: pKi

Example results:
| molecule | measured-target | pKi |
| --- | --- | --- |
| CCn1nc(C)cc1-c1nnc(-c2cc(C(N)=O)cc3c2cnn3[C@H]2CC[C@@H](NC)CC2)[nH]1 | R232-STING (Homo sapiens, UniProt Q86WV6, H232R) | 6.02 |
| CCn1nc(C)cc1-c1nnc(-c2cc(C(N)=O)cc3c2cnn3[C@H](C)CN2CCOCC2)[nH]1 | R232-STING (Homo sapiens, UniProt Q86WV6, H232R) | 6.47 |

I: Cc1cc(-c2n[nH]c(-c3nc(C(N)=O)cc4c3cnn4C)n2)n(CCCO)n1
II: CCn1nc(C)cc1-c1nnc(-c2cc(C(N)=O)cc3c2cnn3[C@H]2CCCNC2)[nH]1 [ZZZ061]
Ask: Returns: the label, I or II , whose recorded pKi is the lower number. Which one? Tell me its label.
Reply: II

###

# measured-target: R232-STING (Homo sapiens, UniProt Q86WV6, H232R)
# assay-comment: biochemical
assay-endpoint: Ki (nM)

Example results:
| compound | value-unit | endpoint-result |
| --- | --- | --- |
| CCn1nc(C)cc1-c1n[nH]c(-c2cc(C(N)=O)cc3c2cnn3CCN2CCOCC2(C)C)n1 | nM | 900 |
| Cc1nn(CCC(=O)O)c(-c2n[nH]c(-c3nc(C(N)=O)cc4c3cnn4C)n2)c1O | nM | 7.2 |
| CCn1cc(C)c(O)c1-c1nc(-c2nc(C(N)=O)cc3c2cnn3C)cs1 | nM | 8.3 |

a: CCn1nc(C)cc1-c1n[nH]c(-c2cc(C(N)=O)cc3c2cnn3CCN2CCO[C@H](CO)C2)n1
b: CCn1nc(C)cc1-c1n[nH]c(-c2c(F)c(C(N)=O)cc3c2cnn3C)n1
Ask: Compare a and b by numeric Ki and name the larger one. Which one? Tell me its label.
Reply: a
(a: 538 nM, b: 28.7 nM)

A: CCn1nc(C)c(C(F)(F)F)c1-c1nnc(-c2cc(C(N)=O)cc3c2cnn3C)[nH]1
B: CCn1nc(C)c(O)c1-c1cnc(-c2cc(C(N)=O)cc3c2cnn3C)[nH]1
C: Cc1cc(-c2nc(-c3nc(C(N)=O)cc4c3cnn4C)n(C)n2)n(CCCO)n1
Ask: Please rank these compounds by Ki in descending order. # list labels per requested ordering
Reply: A, B, C

I: CCn1nc(C)cc1-c1n[nH]c(-c2cc(C(N)=O)cc3c2ccn3C)n1
II: CCn1nc(C)cc1-c1c[nH]c(-c2cc(C(N)=O)cc3c2cnn3C)n1
Ask: Compare I and II by numeric Ki and name the larger one. Which one? Tell me its label.
Reply: II

A: Cc1nn(CCC(=O)O)c(-c2n[nH]c(-c3cc(C(N)=O)cc4c3cnn4C)n2)c1F
B: CCn1nc(C)cc1-c1nc(-c2nc(C(N)=O)cc3c2cnn3C)n(C)n1
Ask: Compare A and B by numeric Ki and name the larger one. Which one? Tell me its label.
Reply: A
(A: 47.1 nM, B: 14.2 nM)

###

# measured-target: STING (Homo sapiens, UniProt Q86WV6, G230A/H232R/R293Q/R71H)
# Construct: host or cells: THP-1 and THP-1 Lucia ISG cells
# Sequence (Q86WV6 whole entry R71H/G230A/H232R/R293Q): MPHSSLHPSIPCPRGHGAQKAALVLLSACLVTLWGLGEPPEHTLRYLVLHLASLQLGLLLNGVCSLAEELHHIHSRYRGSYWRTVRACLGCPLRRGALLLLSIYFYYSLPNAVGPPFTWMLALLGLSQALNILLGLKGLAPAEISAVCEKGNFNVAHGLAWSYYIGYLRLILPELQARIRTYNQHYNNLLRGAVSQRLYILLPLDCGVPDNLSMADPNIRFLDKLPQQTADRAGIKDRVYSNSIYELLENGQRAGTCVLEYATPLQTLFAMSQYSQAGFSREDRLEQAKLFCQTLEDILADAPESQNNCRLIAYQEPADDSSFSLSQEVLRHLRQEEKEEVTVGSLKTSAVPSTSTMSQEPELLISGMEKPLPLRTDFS
# assay-comment: Phosphorylation of IRF3: THP-1 cell ELISA
# Format: cell-based
# experimental-context: THP-1 cells, 3 hours incubation, phospho-IRF3 ELISA; read-out: THP-1 CELL P-IRF3 EC50
assay-endpoint: EC50 (µM)

Example results:
| compound | EC50 [µM] |
| --- | --- |
| CCn1nc(C)c(F)c1-c1c[nH]c(-c2cc(C(N)=O)cc3c2cnn3C)n1 [Example G02] | 1.16 |
| CCn1nc(C)c(O)c1-c1nc(-c2nc(C(N)=O)cc3c2cnn3C)c(CN)o1 [Example U01] | 0.4 |
| CCn1nc(C)c(F)c1-c1nc(-c2nc(C(N)=O)cc3c2cnn3CCN2CCC(C#N)CC2)n(C)n1 [Example J02] | 3.6 |

A: CCn1nc(C)cc1-c1nc(-c2nc(C(N)=O)cc3c2cnn3C)c(CN)s1 [Example R01]
B: CCn1ncc(O)c1-c1nc(-c2nc(C(N)=O)cc3c2cnn3C)c(CN)o1 [Example U02]
C: CCn1nc(C)cc1-c1csc(-c2cc(C(N)=O)cc3c2cnn3C)n1 [Example H01]
Ask: Please rank these compounds by EC50 in descending order. # list labels per requested ordering
Reply: C, B, A
